- test_details: self-splicing fitness, log relative to wild type (ln ratio); higher = more splicing; Tetrahymena group I intron in knt gene, E. coli kanamycin selection, DiMSum; sequences stand for … in CUCUCU…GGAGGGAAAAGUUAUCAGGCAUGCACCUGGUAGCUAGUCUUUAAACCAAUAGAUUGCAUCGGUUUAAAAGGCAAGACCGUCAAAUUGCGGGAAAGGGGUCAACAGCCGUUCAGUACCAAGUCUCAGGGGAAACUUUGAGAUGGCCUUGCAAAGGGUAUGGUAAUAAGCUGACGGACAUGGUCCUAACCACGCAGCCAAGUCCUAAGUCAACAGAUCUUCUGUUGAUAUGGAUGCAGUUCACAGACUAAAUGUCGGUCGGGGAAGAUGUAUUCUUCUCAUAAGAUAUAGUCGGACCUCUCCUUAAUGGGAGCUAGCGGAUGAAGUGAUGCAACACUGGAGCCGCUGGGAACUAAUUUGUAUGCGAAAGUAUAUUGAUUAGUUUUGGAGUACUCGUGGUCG;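 also: selection with 25 µg/mL kanamycin versus none on LB agar overnight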
- particulars: 37 °C
Documented self-splicing fitness (ln) across a set of sequences
property_name: self-splicing fitness (ln)

In [3]: df
Out[3]:
      construct_sequence               property_name  numeric_readout
 0  AAACAGCAAUAUUACGACUU  self-splicing fitness (ln)            0.468
 1  AUCGAGCAAUAUUACGGGCA  self-splicing fitness (ln)            -1.32
 2  UGGUAGCAAUAUUACGUGCG  self-splicing fitness (ln)           -0.415
 3  CGCUAGCAAUAUUACGAUAA  self-splicing fitness (ln)            -2.35
 4  UCGAAGCAAUAUUACGGAGA  self-splicing fitness (ln)            -2.44
 5  UAUAAGCAAUAUUACGUGGC  self-splicing fitness (ln)            -2.73
 6  UUGAAGCAAUAUUACGAUGA  self-splicing fitness (ln)            0.161
 7  CCAAAGCAAUAUUACGUCUA  self-splicing fitness (ln)            -2.06
 8  ACCAAGCAAUAUUACGUUAU  self-splicing fitness (ln)            -2.04
 9  CUGAAGCAAUAUUACGUCUC  self-splicing fitness (ln)            -1.47
10  AAUAAGCAAUAUUACGCCAA  self-splicing fitness (ln)            -1.46
11  AUCAAGCAAUAUUACGCACA  self-splicing fitness (ln)          -0.0877
12  AAGCAGCAAUAUUACGGUCG  self-splicing fitness (ln)           -0.879
13  GAGUAGCAAUAUUACGUAGA  self-splicing fitness (ln)            -2.18
14  CCAAAGCAAUAUUACGGGCA  self-splicing fitness (ln)            -2.86
15  AUGUAGCAAUAUUACGCCUG  self-splicing fitness (ln)           -0.722

###

- test_details: self-splicing fitness, log relative to wild type (ln ratio); higher = more splicing; Tetrahymena group I intron in knt gene, E. coli kanamycin selection, DiMSum; sequences stand for … in CUCUCU…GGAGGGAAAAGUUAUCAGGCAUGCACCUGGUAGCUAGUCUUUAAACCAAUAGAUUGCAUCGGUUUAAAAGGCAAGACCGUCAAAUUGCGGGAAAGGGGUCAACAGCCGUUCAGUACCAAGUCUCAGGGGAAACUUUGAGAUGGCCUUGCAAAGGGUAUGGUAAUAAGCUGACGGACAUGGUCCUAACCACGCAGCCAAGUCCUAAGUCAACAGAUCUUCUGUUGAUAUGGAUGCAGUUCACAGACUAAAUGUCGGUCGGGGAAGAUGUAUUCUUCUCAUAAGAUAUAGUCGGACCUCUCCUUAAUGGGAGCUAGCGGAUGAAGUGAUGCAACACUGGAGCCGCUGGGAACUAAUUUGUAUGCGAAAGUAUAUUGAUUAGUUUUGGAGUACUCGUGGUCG
- particulars: 30 °C
Parameter self-splicing fitness (ln): see the listing below.
property_name: self-splicing fitness (ln)

>>> print(df.to_string())
     construct_sequence  numeric_readout
0  GACAAGCAAUAUUACGAAGG            -4.06
1  UGUGAGCAAUAUUACGCUGA            -2.24
2  CGGAAGCAAUAUUACGUGCU            -3.85
3  CAGAAGCAAUAUUACGGACG           -0.743
4  GCGCAGCAAUAUUACGCUGA            -1.16
5  GUGUAGCAAUAUUACGCGGG            -3.73
6  UCCCAGCAAUAUUACGUGAG            -1.52
7  CGAGAGCAAUAUUACGUAUC            -3.63
